Taken from PubChem BioAssay (NCI).

Test system: OVCAR-8 ovarian
Experiment: NCI-60 one-dose screen, 48 h (100 = growth as untreated, 0 = no growth, -100 = all killed)
Conditions: 10 µM
About 83,000 compounds went through this panel and 20% of them were active in at least one assay; those are over-represented in the sample as a whole.
Quick rule: growth of at least 90% means Condition met, below that means Condition not met.

Kindly determine if growth recorded for COc1cc(Nc2ccnc(NCCNc3ccnc4cc(Cl)ccc34)n2)cc(OC)c1 is above or exactly 90%.
Condition not met

Is it the case that CN1CCC2(CC1)NC(=O)c1c(c3ccc(Cl)c(Cl)c3n1C)C2C#N (stereo not given) has growth reaching or exceeding 90%?
Condition not met

State whether the measured growth reaches 90%, counting equality as reaching it, for Cn1c([N+](=O)[O-])cnc1/C=C1\Oc2ccccc2C1=O
Condition not met

Does growth meet or surpass 90% for CCC1(C(C)C)NC(=O)NC1=O (stereo not given) ?
Condition met

Please check the record CCN1CCC2(CC1)OC(c1ccccc1)C(c1ccccc1)O2 (stereo not given) and state if its growth is at or above 90%.
Condition met

I'd appreciate it if you could say whether COc1ccc2nc3cc(Cl)ccc3c(NCCNCC(C)O)c2c1 (stereo not given) has growth at least equal to 90%.
Condition not met

Hi team, for Clc1cc2c(c(CSc3nc4ccccc4n4cccc34)c1)OCOC2 , is the recorded growth at or above 90%?
Condition not met

Textbook exercise: given the entry O=C1/C(=C/c2ccc([N+](=O)[O-])o2)Oc2ccccc21 , state whether its growth is greater than or equal to 90%.
Condition not met

Entry Nc1c(C(=O)Nc2cccc3ccccc23)sc2nc3c(cc12)C(=O)CCC3 : is its growth no less than 90%?
Condition not met

Exam item: decide whether the reported growth for COc1ccc(/C=C2/CN(CCC#N)C/C(=C\c3ccc(OC)cc3)C2=O)cc1 is at least 90%.
Condition not met

Decide: is the reported value of growth for COc1cc2nc(Nc3cccc(NC(C)=O)c3)nc(N)c2cc1OC equal to or greater than 90%?
Condition met

Evaluate CN(C)N=Nc1nn(C(=O)Nc2ccc(Cc3ccccc3)cc2)c2ccccc12 : growth at minimum 90%?
Condition not met

Identify whether the reported growth of the following molecule is 90% or greater: CN(C)Cc1cn(-c2ncc(-c3ccc(C(F)(F)F)cc3)c(NC3CCCCCC3)n2)nn1
Condition not met

Tell me whether growth is at least 90% here: COc1ccccc1CNCCN1C(=O)c2ccc3c4c(ccc(c24)C1=O)C(=O)N(CCNCc1ccccc1OC)C3=O
Condition not met

Evaluate O=C(O)c1ccc(P(=O)(O)O)c([N+](=O)[O-])c1 : growth at minimum 90%?
Condition met

State whether the measured growth reaches 90%, counting equality as reaching it, for COc1ccc(-c2cc(/C=C3\C(=O)Nc4ccc(OC)cc43)[nH]n2)cc1
Condition not met

State whether the measured growth reaches 90%, counting equality as reaching it, for COc1cc2c(cc1OCCCCCCN1CCN(CC(=O)Nc3ccc(Cl)cc3C(=O)c3ccccc3Cl)CC1)N=CC1CCCN1C2=O (stereo not given)
Condition not met

I'd appreciate it if you could say whether COc1cc(-c2cc(/C=C/C(=O)c3ccc(F)c(F)c3)[nH]n2)cc(OC)c1OC has growth at least equal to 90%.
Condition not met

Given COc1ccc2c(c1)C(=O)c1c-2c(=O)n(CCCN(C)C)c2cc(OC)c(OC)cc12 , state whether its growth is at least 90%.
Condition not met

growth >= 90% for CN(Cc1ccccc1)Cc1ccc([N+](=O)[O-])cc1I ?
Condition met

Decide: growth of COc1cc(-c2cc(/C=C/C(=O)c3ccc4c(c3)OCO4)[nH]n2)cc(OC)c1OC >= 90%?
Condition not met

Decide: is the reported value of growth for N#Cc1ncc(-c2cc(F)c(F)c(F)c2)c(NC2CCCCCC2)n1 equal to or greater than 90%?
Condition met

Check the entry O=C1/C(=C\c2ccccc2)CN(C(=O)c2ccccc2F)C/C1=C\c1ccccc1 : does growth equal or exceed 90%?
Condition not met

Assess whether reported growth for COc1ccc(-c2ccc3cc(C(=O)Nc4ccc(O)c(C(=O)/C=C/c5cc(OC)c(OC)c(OC)c5)c4)ccc3c2)cc1 sits at 90% or higher.
Condition not met

Is reported growth greater than or equal to 90% here: CCOC(=O)C1(CC(C)C)CCOC1=O (stereo not given)
Condition met

Please check the record Cc1cccc(C)c1NC(=O)c1sc2nc3c(cc2c1N)C(=O)CCC3 and state if its growth is at or above 90%.
Condition met

I'd appreciate it if you could say whether CCCCCCCCCCCCCCCC(=O)OC1[C@@H](OC(=O)CCCCCCCCCCCCCCC)[C@@H](C(=O)N[C@@H](CCCCN)C(=O)OC)O[C@H]1n1cnc2c(=O)[nH]c(NC(=O)C(C)C)nc21 (stereo not given in full) has growth at least equal to 90%.
Condition not met

Hi, just wondering whether COc1ccc(/C=C/C(C)=N/OCC(=O)O)cc1 shows growth of 90% or higher.
Condition met

Hi, just wondering whether Cn1c([N+](=O)[O-])cnc1/C=C1\Oc2ccc(Cl)cc2C1=O shows growth of 90% or higher.
Condition not met

Given O=C(Nc1ccncc1)C(=O)c1cn(S(=O)(=O)c2cc(Cl)cc(Cl)c2)c2ccccc12 , state whether its growth is at least 90%.
Condition not met

Given CCCN(CCC)CCC(O)c1cc2c(c3ccccc13)CCCC2 (stereo not given) , state whether its growth is at least 90%.
Condition met

Decide: growth of CCCCCCCCCCCCC1C/C=C\CCCC(=O)O1 (stereo not given) >= 90%?
Condition met

State whether the measured growth reaches 90%, counting equality as reaching it, for O=c1[nH]c(-c2ccc(Cl)cc2)nc2sc3c(c12)CCCC3
Condition not met

Is growth for CCN(CC)CCOc1nc2ccccc2c2c1-c1ccc(OC)cc1C2=O at or above 90%?
Condition not met

Is growth for O=C(CCCCC[P+](c1ccccc1)(c1ccccc1)c1ccccc1)NC(COC(=O)C(Cl)Cl)(COC(=O)C(Cl)Cl)COC(=O)C(Cl)Cl at or above 90%?
Condition met

Check if growth >= 90% (inclusive). Item: CCN(CCCCCCCCCCN1CC(=O)N(CCCCCCCCCCN(CC)Cc2ccccc2OC)CC1=O)Cc1ccccc1OC
Condition not met

Form field: growth at least 90%? Entry: COc1cc(-c2nc(-c3nnc(-c4ccccc4Cl)o3)c3ccccn23)cc(OC)c1OC
Condition not met
